Experiment: Pharmacokinetics of memantine with sodium hydroxide, menthol and NH4Cl in male beagle dogs (Example 3)
Format: in vivo, beagle dog
Settings: male, beagle, dog, plasma, po, 0.4 mg/kg, MMT 0.4 mg/kg, 3.3 mg/ml sodium hydroxide + 5 mg/ml menthol + 30 mg/kg NH4Cl
Outcome measure: AUC(0-inf)

**Query** For the compound CC12CC3CC(C)(C1)CC(N)(C3)C2 [Memantine] , what AUC(0-inf) is on record?
**Result** 125 ng·h/mL

* * *

Experiment: Pharmacokinetics of memantine after oral or buccal dosing in male beagle dogs (Example 2)
Type: in vivo, beagle dog
Details: male, beagle, dog, plasma, po, 0.4 mg/kg, MMT 0.4 mg/kg Oral, ControlAve
Outcome measure: Cmax (ng/mL)
Numbers only, in ng/mL.

**Query** Which measured Cmax value corresponds to CC12CC3CC(C)(C1)CC(N)(C3)C2 [Memantine] ?
**Result** 22

* * *

Assay: Pharmacokinetics of memantine with sodium hydroxide, menthol and NH4Cl in male beagle dogs (Example 3)
Assay type: in vivo, beagle dog
Conditions: male, beagle, dog, plasma, po, 0.4 mg/kg, MMT 0.4 mg/kg, Control
Outcome measure: Tmax

**Query** Please report the recorded Tmax for CC12CC3CC(C)(C1)CC(N)(C3)C2 [Memantine] .
**Result** 45 min

* * *

Assay: Pharmacokinetics of memantine with sodium hydroxide, menthol and NH4Cl in male beagle dogs (Example 3)
Assay type: in vivo, beagle dog
Settings: male, beagle, dog, plasma, po, 0.4 mg/kg, MMT 0.4 mg/kg, Control
Outcome measure: AUC(0-inf)
Write the figure, then the unit, nothing else.

**Query** Fill in the blank: the reported AUC(0-inf) of CC12CC3CC(C)(C1)CC(N)(C3)C2 [Memantine] is ____.
**Result** 132 ng·h/mL

* * *

Assay: Pharmacokinetics of memantine after oral or buccal dosing in male beagle dogs (Example 2)
Type: in vivo, beagle dog
Conditions: male, beagle, dog, plasma, po, 0.4 mg/kg, MMT 0.4 mg/kg Oral + 25 mg/kg NH4Cl
Outcome measure: Tmax

**Query** Please look up its Tmax: CC12CC3CC(C)(C1)CC(N)(C3)C2 [Memantine]
**Result** 1.5 h

* * *

Assay: Pharmacokinetics of memantine after oral or buccal dosing in male beagle dogs (Example 2)
Type: in vivo, beagle dog
Conditions: male, beagle, dog, plasma, po, 0.4 mg/kg, MMT 0.4 mg/kg Oral + 30 mg/kg NH4Cl
Outcome measure: AUC(0-inf)
Express the reported value numerically, then name its unit.

**Query** // lookup AUC(0-inf) for CC12CC3CC(C)(C1)CC(N)(C3)C2 [Memantine]
**Result** 168 ng·h/mL

* * *

Test: Pharmacokinetics of memantine with sodium hydroxide, menthol and NH4Cl in male beagle dogs (Example 3)
Format: in vivo, beagle dog
Conditions: male, beagle, dog, plasma, po, 0.4 mg/kg, MMT 0.4 mg/kg, 3.3 mg/ml sodium hydroxide + 5 mg/ml menthol + 20 mg/kg NH4Cl
Outcome measure: AUC(0-inf) (ng·h/mL)
One number for each entry, in ng·h/mL.

**Query** Reported AUC(0-inf), compound CC12CC3CC(C)(C1)CC(N)(C3)C2 [Memantine] : ____
**Result** 143

* * *

Experiment: Pharmacokinetics of memantine after oral or buccal dosing in male beagle dogs (Example 2)
Format: in vivo, beagle dog
Conditions: male, beagle, dog, plasma, 0.4 mg/kg, MMT 0.4 mg/kg Buccal + 3.3 mg/ml NaOH
Outcome measure: Tmax (min)
One number for each entry, in min.

**Query** Any idea what its Tmax is? The compound is CC12CC3CC(C)(C1)CC(N)(C3)C2 [Memantine]
**Result** 15

* * *

Assay: Pharmacokinetics of memantine with sodium hydroxide, menthol and NH4Cl in male beagle dogs (Example 3)
Format: in vivo, beagle dog
Conditions: male, beagle, dog, plasma, po, 0.4 mg/kg, MMT 0.4 mg/kg, Control
Outcome measure: half-life (h)
Numbers only, in h.

**Query** For the compound CC12CC3CC(C)(C1)CC(N)(C3)C2 [Memantine] , what half-life is on record?
**Result** 7.18

* * *

Assay: Pharmacokinetics of memantine with sodium hydroxide, menthol and NH4Cl in male beagle dogs (Example 3)
Type: in vivo, beagle dog
Settings: male, beagle, dog, plasma, po, 0.4 mg/kg, MMT 0.4 mg/kg, 3.3 mg/ml sodium hydroxide + 5 mg/ml menthol
Outcome measure: half-life (h)
Give bare numbers, in h.

**Query** // returns reported half-life for input CC12CC3CC(C)(C1)CC(N)(C3)C2 [Memantine]
**Result** 5.05

* * *

Experiment: Pharmacokinetics of memantine with sodium hydroxide, menthol and NH4Cl in male beagle dogs (Example 3)
Assay type: in vivo, beagle dog
Conditions: male, beagle, dog, plasma, po, 0.4 mg/kg, MMT 0.4 mg/kg, 3.3 mg/ml sodium hydroxide + 5 mg/ml menthol + 30 mg/kg NH4Cl
Outcome measure: AUC(0-t) (ng·h/mL)
Answers are plain numbers, in ng·h/mL.

**Query** Please look up its AUC(0-t): CC12CC3CC(C)(C1)CC(N)(C3)C2 [Memantine]
**Result** 103

* * *

Test: Pharmacokinetics of memantine after oral or buccal dosing in male beagle dogs (Example 2)
Format: in vivo, beagle dog
Conditions: male, beagle, dog, plasma, po, 0.4 mg/kg, MMT 0.4 mg/kg Oral + 30 mg/kg NH4Cl
Outcome measure: AUC(0-t) (µg·h/mL)
One number for each entry, in µg·h/mL.

**Query** # AUC(0-t) lookup, item CC12CC3CC(C)(C1)CC(N)(C3)C2 [Memantine]
**Result** 0.163

* * *

Assay: Pharmacokinetics of memantine after oral or buccal dosing in male beagle dogs (Example 2)
Assay type: in vivo, beagle dog
Details: male, beagle, dog, plasma, po, 0.4 mg/kg, MMT 0.4 mg/kg Oral + 25 mg/kg NH4Cl
Outcome measure: AUC(0-t) (ng·h/mL)
Numbers only, in ng·h/mL.

**Query** Dear colleague, I am looking for the recorded AUC(0-t) of the following compound: CC12CC3CC(C)(C1)CC(N)(C3)C2 [Memantine]
**Result** 169

* * *

Test: Pharmacokinetics of memantine after oral or buccal dosing in male beagle dogs (Example 2)
Assay type: in vivo, beagle dog
Conditions: male, beagle, dog, plasma, 0.4 mg/kg, MMT 0.4 mg/kg Buccal, Control (water)
Outcome measure: AUC(0-t) (ng·h/mL)
Numbers only, in ng·h/mL.

**Query** Reported AUC(0-t) for CC12CC3CC(C)(C1)CC(N)(C3)C2 [Memantine] : what is it?
**Result** 119
